The values you see were collected from the NIST ThermoML archive (doi:10.1021/je300610y).

Parameter Molar enthalpy of transition or fusion: see the listing below.
Assay: Molar enthalpy of transition or fusion
Conditions: Crystal; DSC
OBSERVATION_TYPE: Molar enthalpy of transition or fusion (kJ/mol)

* CCc1ccc(NC2=NCCC3(CCCCC3)S2)cc1 [N-(4-ethylphenyl)-1-thia-3-azaspiro[5.5]undec-2-en-2-amine] | 42.8
* Brc1ccc(NC2=NCCC3(CCCCC3)S2)cc1 [N-(4-bromophenyl)-1-thia-3-azaspiro[5.5]undec-2-en-2-amine] | 44.3
* FC(F)(F)c1ccc(NC2=NCCC3(CCCCC3)S2)cc1 | 32.9
* Cc1ccc(NC2=NCCC3(CCCCC3)S2)cc1Cl | 33.2

###

Settings: 393.15 K; Crystal; Transpiration method
OBSERVATION_TYPE: vapor or sublimation pressure (kPa)

* Brc1ccc(NC2=NCCC3(CCCCC3)S2)cc1 [N-(4-bromophenyl)-1-thia-3-azaspiro[5.5]undec-2-en-2-amine] | 5.5e-05
* Clc1ccc(NC2=NCCC3(CCCCC3)S2)cc1 [N-(4-chlorophenyl)-1-thia-3-azaspiro[5.5]undec-2-en-2-amine] | 0.0001487
* FC(F)(F)c1ccc(NC2=NCCC3(CCCCC3)S2)cc1 | 0.0001076
* CC(C)c1ccc(NC2=NCCC3(CCCCC3)S2)cc1 | 0.0003364
* Cc1ccc(NC2=NCCC3(CCCCC3)S2)cc1Cl | 1.79e-05

###

Conditions: 380.15 K; Crystal; Transpiration method
± gives the expanded uncertainty stated by the source.
Parameter vapor or sublimation pressure: see the listing below.
OBSERVATION_TYPE: vapor or sublimation pressure

- Clc1ccc(NC2=NCCC3(CCCCC3)S2)cc1 [N-(4-chlorophenyl)-1-thia-3-azaspiro[5.5]undec-2-en-2-amine]: 3.58e-05 ± 3.8e-06 kPa
- CCc1ccc(NC2=NCCC3(CCCCC3)S2)cc1 [N-(4-ethylphenyl)-1-thia-3-azaspiro[5.5]undec-2-en-2-amine]: 0.0001583 ± 1.7e-05 kPa
- Brc1ccc(NC2=NCCC3(CCCCC3)S2)cc1 [N-(4-bromophenyl)-1-thia-3-azaspiro[5.5]undec-2-en-2-amine]: 1.35e-05 ± 1.5e-06 kPa
- Cc1ccc(NC2=NCCC3(CCCCC3)S2)cc1 [N-(4-methylphenyl)-1-thia-3-azaspiro[5.5]undec-2-en-2-amine]: 0.0002336 ± 2.5e-05 kPa

###

Parameter vapor or sublimation pressure: see the listing below.
Conditions: 376.15 K; Crystal; Transpiration method
OBSERVATION_TYPE: vapor or sublimation pressure (kPa)

• Clc1ccc(NC2=NCCC3(CCCCC3)S2)cc1 [N-(4-chlorophenyl)-1-thia-3-azaspiro[5.5]undec-2-en-2-amine] = 2e-05
• CC(C)c1ccc(NC2=NCCC3(CCCCC3)S2)cc1 = 7.14e-05
• CCc1ccc(NC2=NCCC3(CCCCC3)S2)cc1 [N-(4-ethylphenyl)-1-thia-3-azaspiro[5.5]undec-2-en-2-amine] = 0.0001151
• Cc1ccc(NC2=NCCC3(CCCCC3)S2)cc1 [N-(4-methylphenyl)-1-thia-3-azaspiro[5.5]undec-2-en-2-amine] = 0.0001366

###

Conditions: Crystal; DTA
OBSERVATION_TYPE: Normal melting temperature (°C)

• Brc1ccc(NC2=NCCC3(CCCCC3)S2)cc1 [N-(4-bromophenyl)-1-thia-3-azaspiro[5.5]undec-2-en-2-amine] = 175.2
• Cc1ccc(NC2=NCCC3(CCCCC3)S2)cc1 [N-(4-methylphenyl)-1-thia-3-azaspiro[5.5]undec-2-en-2-amine] = 128.1
• c1ccc(NC2=NCCC3(CCCCC3)S2)cc1 [N-phenyl-1-thia-3-azaspiro[5.5]undec-2-en-2-amine] = 113.4
• Cc1ccc(NC2=NCCC3(CCCCC3)S2)cc1Cl = 149.2
• FC(F)(F)c1ccc(NC2=NCCC3(CCCCC3)S2)cc1 = 149.7
• Clc1ccc(NC2=NCCC3(CCCCC3)S2)cc1 [N-(4-chlorophenyl)-1-thia-3-azaspiro[5.5]undec-2-en-2-amine] = 162.6
• CC(C)c1ccc(NC2=NCCC3(CCCCC3)S2)cc1 = 139.6
• CCc1ccc(NC2=NCCC3(CCCCC3)S2)cc1 [N-(4-ethylphenyl)-1-thia-3-azaspiro[5.5]undec-2-en-2-amine] = 139.4
